- assay.info: self-splicing fitness, log relative to wild type (ln ratio); higher = more splicing; Tetrahymena group I intron in knt gene, E. coli kanamycin selection, DiMSum; sequences stand for … in CUCUCU…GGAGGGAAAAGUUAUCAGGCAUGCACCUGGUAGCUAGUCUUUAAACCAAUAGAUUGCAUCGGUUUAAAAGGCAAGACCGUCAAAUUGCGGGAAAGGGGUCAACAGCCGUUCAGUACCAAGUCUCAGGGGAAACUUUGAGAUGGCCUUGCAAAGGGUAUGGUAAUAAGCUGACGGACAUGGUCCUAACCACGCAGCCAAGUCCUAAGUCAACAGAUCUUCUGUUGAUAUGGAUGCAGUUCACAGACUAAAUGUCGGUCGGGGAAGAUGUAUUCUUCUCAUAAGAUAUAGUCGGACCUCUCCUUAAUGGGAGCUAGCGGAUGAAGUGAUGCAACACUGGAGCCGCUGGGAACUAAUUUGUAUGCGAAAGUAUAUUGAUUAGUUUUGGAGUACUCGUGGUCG;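 further: selection with 25 µg/mL kanamycin versus none on LB agar overnight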
- assay.context: 30 °C
Reported values of self-splicing fitness (ln) for individual entries
measurement.kind: self-splicing fitness (ln)

* GCAGAGCAAUAUUACGCGCA | -2.97
* UGUGAGCAAUAUUACGAGAG | -3.57
* GAACAGCAAUAUUACGGAUA | -2.51
* GCUCAGCAAUAUUACGCUAC | -3.26
* UAAGAGCAAUAUUACGUAGG | -3.24
* ACAGAGCAAUAUUACGCCAU | -3.46
* AUGAAGCAAUAUUACGGCGG | -0.365
* ACUCAGCAAUAUUACGAUCU | -0.0985
* CUUUAGCAAUAUUACGUGAU | -2.8
* UGCUAGCAAUAUUACGUGGC | -3.1
